What phosphorylation enrichment was measured for each of the following?
molecular target: FGFR3 (UniProt P22607); experiment: phosphorylation enrichment, bacterial display (enrichment ratio); higher = better substrate or ligand; peptides without Tyr show the background;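 note: 11-residue human phosphosite peptides and single-mutation variants displayed on the E. coli surface, counted by deep sequencing, each peptide's frequency after selection divided by its frequency in the unselected input library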;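 note: frequency after pTyr selection over input frequency; kinase dosed for 20-30% of maximal phosphorylation in three min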
Sequence (P22607 whole entry, looked up): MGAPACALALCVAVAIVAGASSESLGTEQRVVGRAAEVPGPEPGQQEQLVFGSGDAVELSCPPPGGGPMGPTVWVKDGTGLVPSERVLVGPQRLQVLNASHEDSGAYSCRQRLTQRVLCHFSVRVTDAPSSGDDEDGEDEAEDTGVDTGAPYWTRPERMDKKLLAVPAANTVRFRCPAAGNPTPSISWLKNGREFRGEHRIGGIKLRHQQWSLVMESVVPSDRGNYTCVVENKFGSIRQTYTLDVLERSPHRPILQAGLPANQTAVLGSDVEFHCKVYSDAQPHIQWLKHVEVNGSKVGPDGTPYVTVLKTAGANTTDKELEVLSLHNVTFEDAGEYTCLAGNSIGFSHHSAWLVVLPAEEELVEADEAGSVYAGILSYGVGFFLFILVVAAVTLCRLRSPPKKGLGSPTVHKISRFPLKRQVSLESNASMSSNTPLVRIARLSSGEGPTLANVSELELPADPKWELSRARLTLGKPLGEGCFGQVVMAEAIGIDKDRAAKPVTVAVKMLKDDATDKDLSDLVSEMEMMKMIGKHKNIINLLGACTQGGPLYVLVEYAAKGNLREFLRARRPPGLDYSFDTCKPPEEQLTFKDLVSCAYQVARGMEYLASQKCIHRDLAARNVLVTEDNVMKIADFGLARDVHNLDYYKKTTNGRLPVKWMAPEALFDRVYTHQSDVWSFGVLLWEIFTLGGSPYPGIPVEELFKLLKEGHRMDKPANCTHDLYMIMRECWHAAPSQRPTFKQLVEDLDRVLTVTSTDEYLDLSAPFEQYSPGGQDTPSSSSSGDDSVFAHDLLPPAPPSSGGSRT

phosphorylation enrichment in this record for AAAAVYTFLPD [MYORG_Y36_M35V] : 10.6

phosphorylation enrichment in this record for RVFRDYVLKSA [HTATIP2_Y111_D108Y_YF] : 0.605

phosphorylation enrichment in this record for MTYMFYRENLR [NLRP14_Y443_V441M] : 0.753

phosphorylation enrichment in this record for SNKLTYGTVVF [ACOX1_Y275_M278V] : 0.617

phosphorylation enrichment in this record for SSAKTYSRMRL [NBEAL2_Y1835_E1833K] : 0.394

phosphorylation enrichment in this record for GMIQAYSSSQR [DES_Y5_S2I] : 0.389

phosphorylation enrichment in this record for FGSSSSGGAGG [RPA2_Y14_Y14S_YF] : 0.455

phosphorylation enrichment in this record for FGGLRYGFGVL [KRTAP20-2_Y13_YF] : 0.56

phosphorylation enrichment in this record for IRTIDYRFTVC [IDS_Y497_W502C_YF] : 0.832

phosphorylation enrichment in this record for PSGPTYRGAVP [ASAH1_Y43] : 0.503

phosphorylation enrichment in this record for SCRENYSYSEE [LEMD3_Y258_D260Y] : 0.76

phosphorylation enrichment in this record for AFLLLCFNDTH [BMP15_Y235_Y235C] : 0.918

phosphorylation enrichment in this record for KDFTKYVAFIE [KDM4B_Y31_N29T_YF] : 0.623
